Test: Quantitative High-Throughput drug screen in 47 multiple myeloma cell lines against the NCATS MIPE library collection: JIM3_ECACC cell viability assay (AID 1918963; further: nearly all actives have a fitted effect of over 35% in size)
Settings: JIM3 myeloma viability, CellTiter-Glo ATP, 48 h; series mostly up to 45.8 µM
From the text: PI: Beverly A. Mock Ph.D. Laboratory of Cancer Biology and Genetics, Center for Cancer Research, National Cancer Institute, National Institute of Health, Bethesda, Maryland […] 5; Detector; 425V; Luminescence; Viewlux PerkinElmer. […] 1. […] Briefly, the corresponding myeloma cell lines were screened in 1,536-well plates with 500 cells, 5-uL per well for inhibition of cell viability (assessed by measuring ATP levels with CellTiterGlo). […]
Results filed as inconclusive are left out. The source made the active and inactive calls. The call rests on the fitted dose curve; in most records, active means well fitted cell-killing curve with a large enough effect; inconclusive means small, poorly fitted or top-dose-only effect; inactive means no such curve, though single readings can be large or run the other way.
Classes to choose from: t for active, f for inactive

Worked examples, 4 molecules total:
>  <molecule>
NS(=O)(=O)c1cc2c(cc1Cl)NC=NS2(=O)=O

>  <answer label>
f

$$$$
>  <molecule>
Cc1ccc(-n2nc(C(C)(C)C)cc2NC(=O)Nc2ccc(OCCN3CCOCC3)c3ccccc23)cc1

>  <answer label>
t

$$$$
>  <molecule>
Cc1cnc(Nc2ccc(OCCN3CCCC3)cc2)nc1Nc1cccc(S(=O)(=O)NC(C)(C)C)c1

>  <answer label>
f

$$$$
>  <molecule>
NCCCC(N)(C(=O)O)C(F)F (stereo not given)

>  <answer label>
t

$$$$

Consider the additional molecule presented here.
## Input Any idea what this test logged for CC[C@H](Nc1ncnc2nc[nH]c12)c1nc2cccc(F)c2c(=O)n1-c1ccccc1 ?
## Output t
